Assay: physchem
Settings: octanol/buffer
OUTCOME_MEASURE: logP

Use these answered entries as a reference point.
CHEMICAL_STRING: O=C(NCc1ccccc1Cl)[C@H]1CNCC(=O)N1c1ccc(CCCOc2cccc(Cl)c2)cc1
VAL: 5.05
//
CHEMICAL_STRING: Cc1cc(Cl)c(OCCOc2ccc(N3C(=O)CNC[C@@H]3C(=O)NCc3ccccc3)cc2)c(Cl)c1
VAL: 4.39
//
CHEMICAL_STRING: COc1ccccc1COCCCOc1ncc(N2C(=O)CNC[C@@H]2C(=O)N(Cc2cc(CNC(C)=O)ccc2Cl)C2CC2)cn1
VAL: 2.51
//
CHEMICAL_STRING: O=C(OCc1ccc(N2C(=O)CNC[C@@H]2C(=O)N(Cc2cc(CNCCF)ccc2Cl)C2CC2)cc1)c1ccccc1
VAL: 4.66

(a) O=C(OCc1ccc(N2C(=O)CNC[C@@H]2C(=O)N(Cc2ccc(Cl)cc2)C2CC2)cc1)c1ccccc1
(b) COc1ccccc1COCCCOc1ncc(N2C(=O)CNC[C@@H]2C(=O)N(C)CCCc2ccccc2)cn1
## Input Please compare: a and b . Report which one has the smaller logP value. // return label of chosen record
## Output b
(b: 2.34, a: 4.73)

---

Assay: physchem
Settings: octanol/buffer
OUTCOME_MEASURE: logP

Sample answers from the record:
CHEMICAL_STRING: CCNC(=O)Cc1ccc(Cl)c(CN(C(=O)[C@H]2CNCC(=O)N2c2ccc(OCCOc3c(Cl)cc(C)cc3Cl)nc2)C2CC2)c1
logP: 4.77

CHEMICAL_STRING: O=C([C@H]1CNCC(=O)N1c1ccc(CCCOc2c(F)ccc(F)c2F)cc1)N(Cc1ccc(Cl)cc1)C1CC1
logP: 5.73

CHEMICAL_STRING: COc1cccc(CN(C(=O)[C@H]2CNCC(=O)N2c2ccc(CCCOc3cccc(Cl)c3)cc2)C2CC2)c1C
logP: 5.56

CHEMICAL_STRING: COCCCc1cc(CN(C(=O)[C@H]2CNCC(=O)N2c2ccc(OCCOc3c(Cl)cc(C)cc3Cl)cc2)C2CC2)c(Cl)c[n+]1[O-]
logP: 5.43

CHEMICAL_STRING: COc1c(CN(C(=O)[C@H]2CNCC(=O)N2c2ccc(CCCOc3c(F)ccc(F)c3F)cc2)C2CC2)ccnc1C
logP: 4.12

CHEMICAL_STRING: O=C(Cc1ccc(Cl)c(CN(C(=O)[C@H]2CNCC(=O)N2c2ccc(CCCOc3c(F)ccc(F)c3F)cc2)C2CC2)c1)NC1CC1
logP: 5.8

CHEMICAL_STRING: O=C(CC(F)(F)F)NCc1ccc(Cl)c(CN(C(=O)[C@H]2CNCC(=O)N2c2ccc(CCCOc3cccc(Cl)c3)cc2)C2CC2)c1
logP: 6.09

CHEMICAL_STRING: O=C([C@H]1CNCC(=O)N1c1ccc(OCCCOCc2ccccc2)cc1)N(Cc1cc(CCNC2CC2)ccc1Cl)C1CC1
logP: 5.66

CHEMICAL_STRING: COc1ccccc1COCCCOc1ccc(N2C(=O)CNC[C@@H]2C(=O)N(Cc2ccc(Cl)cc2)C2CC2)cc1
logP: 5.06

CHEMICAL_STRING: COc1ccccc1COCCCOc1ncc(N2C(=O)CNC[C@@H]2C(=O)N(Cc2cc(CNC3CC3)ccc2Cl)C2CC2)cn1
logP: 3.52

(P) CNC(=O)OCCc1ccc(Cl)c(CN(C(=O)[C@H]2CNCC(=O)N2c2ccc(OCCOc3c(Cl)cc(C)cc3Cl)nc2)C2CC2)c1
(Q) COc1ccccc1COCCCOc1ncc(N2C(=O)CNC[C@@H]2C(=O)N(Cc2cc(CC(=O)NC3CC3)ccc2Cl)C2CC2)cn1
## Input Of the two listed items, P and Q , which carries the larger logP figure? Field: selected label. Fill in the label of the entry you choose.
## Output P
(P: 4.84, Q: 3.13)

---

Experiment: physchem
Settings: octanol/buffer
OUTCOME_MEASURE: logP

CHEMICAL_STRING: COC(=O)NCc1ccc(Cl)c(CN(C(=O)[C@H]2CNCC(=O)N2c2ccc(OCCCOCc3ccccc3)cc2)C2CC2)c1
VAL: 4.85

CHEMICAL_STRING: Cc1cc(Cl)c(OCCOc2ccc(N3C(=O)CNC[C@@H]3C(=O)NCc3ccccc3Cl)cc2)c(Cl)c1
VAL: 4.98

CHEMICAL_STRING: O=C([C@H]1CNCC(=O)N1c1ccc(OCCCOCc2ccccc2)cc1)N(Cc1cc(CNC2CC2)ccc1Cl)C1CC1
VAL: 5.58

CHEMICAL_STRING: CC(=O)NCc1ccc(Cl)c(CN(C(=O)[C@H]2CNCC(=O)N2c2ccc(CCCOc3cccc(Cl)c3)cc2)C2CC2)c1
VAL: 5.37

CHEMICAL_STRING: O=C(OCc1ccc(N2C(=O)CNC[C@@H]2C(=O)N(Cc2cccc(Cl)c2)C2CC2)cc1)c1ccccc1
VAL: 4.77

---

Assay: physchem
Conditions: octanol/buffer
OUTCOME_MEASURE: logP

For orientation, consider the following solved cases.
CHEMICAL_STRING: O=C([C@H]1CNCC(=O)N1c1ccc(CCCOc2cccc(Cl)c2)cc1)N(Cc1ccccc1Cl)C1CC1
logP: 5.9
--
CHEMICAL_STRING: CNC(=O)Cc1ccc(Cl)c(CN(C(=O)[C@H]2CNCC(=O)N2c2ccc(OCCCOCc3ccccc3)cc2)C2CC2)c1
logP: 4.53
--
CHEMICAL_STRING: Cc1cc(Cl)c(OCCOc2ccc(N3C(=O)CNC[C@@H]3C(=O)N(Cc3cc(CCNCC(F)F)ccc3Cl)C3CC3)cc2)c(Cl)c1
logP: 6.15

(P) O=C(NCc1ccc(Cl)c(CN(C(=O)[C@H]2CNCC(=O)N2c2ccc(OCCCOCc3ccccc3)cc2)C2CC2)c1)C1CC1
(Q) CNC(=O)OCc1ccc(Cl)c(CN(C(=O)[C@H]2CNCC(=O)N2c2cnc(OCCCOCc3ccccc3OC)nc2)C2CC2)c1
## Input I'm curious, which of these has a smaller logP number: P or Q ? Use the label to indicate which entry you chose.
## Output Q
(Q: 2.8, P: 4.92)

---

Experiment: physchem
Details: octanol/buffer
OUTCOME_MEASURE: logP

CHEMICAL_STRING: O=C([C@H]1CNCC(=O)N1c1ccc(CCCOc2c(F)ccc(F)c2F)cc1)N(Cc1cc(CNC2CC2)ccc1Cl)C1CC1
logP: 6.2

(I) CCNC(=O)Cc1ccc(Cl)c(CN(C(=O)[C@H]2CNCC(=O)N2c2cnc(OCCCOCc3ccccc3OC)nc2)C2CC2)c1
(II) Cc1cc(Cl)c(OCCOc2ccc(N3C(=O)CNC[C@@H]3C(=O)N(Cc3cc(CCNC(=O)COC(C)(C)C)ccc3Cl)C3CC3)cn2)c(Cl)c1
## Input Which value of logP is numerically greater: that of I or that of II ? Returns: label corresponding to the selected item.
## Output II

---

Experiment: physchem
Conditions: octanol/buffer
OUTCOME_MEASURE: logP

(a) O=C([C@H]1CNCC(=O)N1c1ccc(CCCOc2c(F)ccc(F)c2F)cc1)N(Cc1cc(CNCCF)ccc1Cl)C1CC1
(b) CNCc1ccc(Cl)c(CN(C(=O)[C@@H]2CNCC(=O)N2c2cnc(OCCCOCc3ccccc3OC)nc2)C2CC2)c1
## Input Please tell me which of the two, a or b , has the higher reported logP value. Lab log: write the label of the selected item as the result.
## Output a

(a) CN(CCCc1ccccc1)C(=O)[C@H]1CNCC(=O)N1c1ccc(CCCOc2c(F)ccc(F)c2F)cc1
(b) COc1ccccc1COCCCOc1ncc(N2C(=O)CNC[C@@H]2C(=O)N(Cc2ccccc2Cl)C2CC2)cn1
## Input Which record would sort first by descending logP, a or b ? Refer to your chosen entry by its label in the reply.
## Output a

(1) CCNCCc1ccc(Cl)c(CN(C(=O)[C@H]2CNCC(=O)N2c2ccc(CCCOc3c(F)ccc(F)c3F)cc2)C2CC2)c1
(2) COCCc1ccc(Cl)c(CN(C(=O)[C@@H]2CNCC(=O)N2c2cnc(OCCCOCc3ccccc3OC)nc2)C2CC2)c1
## Input Sorting by logP in descending order, would 1 or 2 appear first? Please identify the chosen entry by its label.
## Output 1

---

Test: physchem
Conditions: octanol/buffer
OUTCOME_MEASURE: logP

Worked cases, answers included:
CHEMICAL_STRING: COc1ccccc1COCCCOc1ccc(N2C(=O)CNC[C@@H]2C(=O)NCc2ccccc2Cl)cc1
logP: 4.21
//
CHEMICAL_STRING: CC(=O)NCCc1ccc(Cl)c(CN(C(=O)[C@H]2CNCC(=O)N2c2ccc(OCCOc3c(Cl)cc(C)cc3Cl)cc2)C2CC2)c1
logP: 5.38

(a) O=C(OCc1ccc(N2C(=O)CNC[C@@H]2C(=O)NCc2ccccc2)cc1)c1ccccc1
(b) O=C(Cc1ccc(Cl)c(CN(C(=O)[C@H]2CNCC(=O)N2c2ccc(COC(=O)c3ccccc3)cc2)C2CC2)c1)NC1CC1
## Input Determine, for a and b , which has the greater value of logP. Answer format: the label of the selected item.
## Output b

Entry source: ChEMBL document CHEMBL1944551
